// reported pIC50 for each item listed
assayTarget: UniProtKB Q92918
Sequence (Q92918 whole entry): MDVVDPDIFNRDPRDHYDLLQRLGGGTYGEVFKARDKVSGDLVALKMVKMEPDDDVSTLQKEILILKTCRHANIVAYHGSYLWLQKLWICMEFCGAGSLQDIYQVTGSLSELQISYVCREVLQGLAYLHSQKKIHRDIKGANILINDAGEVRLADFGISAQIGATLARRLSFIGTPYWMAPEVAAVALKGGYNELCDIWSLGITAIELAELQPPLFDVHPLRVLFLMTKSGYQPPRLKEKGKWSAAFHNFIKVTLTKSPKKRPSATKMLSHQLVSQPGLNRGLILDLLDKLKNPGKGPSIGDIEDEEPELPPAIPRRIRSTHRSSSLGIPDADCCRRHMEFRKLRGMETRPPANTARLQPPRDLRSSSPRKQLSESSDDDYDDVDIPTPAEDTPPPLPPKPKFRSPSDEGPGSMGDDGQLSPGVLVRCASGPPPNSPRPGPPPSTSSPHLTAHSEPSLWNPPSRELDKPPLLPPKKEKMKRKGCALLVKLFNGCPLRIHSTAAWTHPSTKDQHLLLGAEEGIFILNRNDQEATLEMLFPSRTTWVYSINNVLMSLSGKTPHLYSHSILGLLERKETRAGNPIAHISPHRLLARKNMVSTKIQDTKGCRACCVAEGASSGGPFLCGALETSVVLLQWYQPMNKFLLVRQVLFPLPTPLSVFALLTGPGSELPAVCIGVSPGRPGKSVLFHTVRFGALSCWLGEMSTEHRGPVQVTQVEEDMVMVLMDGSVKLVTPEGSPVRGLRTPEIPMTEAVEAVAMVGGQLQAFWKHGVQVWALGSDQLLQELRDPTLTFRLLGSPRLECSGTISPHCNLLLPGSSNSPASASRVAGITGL
assayMethodText: HPK1 kinase activity inhibition assay (Mobility shift assay)
Assay type: biochemical
pIC50: −log10 of the molar value.
property: pIC50

> print(dat)
                                  molsmiles       assaytarget  property  result
1  CNC(=O)c1ccccc1Nc1cc(Nc2cc3c(cc2OC)N2CCN(C4CCOCC4)C[C@@H]2CO3)ncc1C(F)(F)F  UniProtKB Q92918     pIC50  > 7.52
2  CNC(=O)c1ccccc1Nc1cc(Nc2cc3c(cc2OC)N2CCN(C4CCN(C)CC4)C[C@@H]2CO3)ncc1C(F)(F)F  UniProtKB Q92918     pIC50  > 7.52
